The values you see were collected from patent US10676436B2.

# System: CD4+ T cells
# assay_method_text: Immunological screening in vitro in CD4+ splenocytes, flow cytometry
# Assay type: cell-based, C57BL/6 mice
value_kind: function at NLRX1 concluded from the cytokine results

| compound | reported_value |
| --- | --- |
| Cc1cccc(Oc2cc(Oc3cccc(C)n3)cc(Oc3cccc(C)n3)c2)n1 [NX-13] | activators of NLRX1 |
| Cc1cccnc1Oc1cc(Oc2ncccc2C)cc(Oc2ncccc2C)c1 [NX-50] | activators of NLRX1 |
| Cc1cc(N)cnc1Oc1cc(Oc2ncc(N)cc2C)cc(Oc2ncc(N)cc2C)c1 [NX-45] | activators of NLRX1 |

* * *

# System: CD4+ T cells
# assay_method_text: Immunological screening in vitro in CD4+ splenocytes, flow cytometry
# Format: cell-based, C57BL/6 mice
# stated_conditions: wild-type cells, 48 h, PMA and ionomycin
value_kind: proportion of IFNγ producing (IFNγ+) CD4+ T cells

// known answers, use as guide
| compound | reported_value |
| --- | --- |
| Cc1cc(O)cnc1Oc1cc(Oc2ccccc2)cc(Oc2ncc(O)cc2C)c1 [NX-44] | increased |
| Cc1cccc(Oc2cc(Oc3ccccc3)cc(Oc3cccc(C)n3)c2)n1 [NX-53] | weakly increased |
| Cc1cccc(Oc2cc(Oc3cccc(C)n3)cc(Oc3ccccc3O)c2)n1 [NX-56] | weakly increased |
| Cc1cccc(Oc2cc(Oc3cccc(C)n3)cc(Oc3nc(C)cc(C)n3)c2)n1 [NX-37] | increased |

Consider now this further compound.
compound Cc1cccnc1Oc1cc(Oc2ccccc2)cc(Oc2ncccc2C)c1 [NX-43] , proportion of IFNγ producing (IFNγ+) CD4+ T cells observed: increased
